experiment.description: recombinant UMI read abundance after kanamycin selection (control-corrected) (log10(CPM+1)); higher = more efficient recombination; extreme values may be limits of the assay; sequences stand for … in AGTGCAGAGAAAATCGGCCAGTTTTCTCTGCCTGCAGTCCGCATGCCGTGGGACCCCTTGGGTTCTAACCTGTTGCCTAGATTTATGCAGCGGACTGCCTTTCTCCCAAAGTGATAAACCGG…AGGTTGGTTTCACT; site = the 11-nt donor;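 also: IS621 bridge recombinase in Escherichia coli cells against a fixed T5 target plasmid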
readout.type: recombinant UMI read abundance (log10)

What value of recombinant UMI read abundance (log10) has been recorded for this entry: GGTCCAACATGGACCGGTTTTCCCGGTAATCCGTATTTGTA (site GGTCCAACTAA)
0.0196

Likewise for CGGAATCCATGGACCGGTTTTCCCGGTAATCCGTATTTGTG (site CGGAATCCTGA) ?
0

Likewise for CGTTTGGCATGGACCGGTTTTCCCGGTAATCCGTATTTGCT (site TGTTTGGCTAG) ?
0.00607

Likewise for CCGTTCACATGGACCGGTTTTCCCGGTAATCCGTATTTGCT (site CCGTTCACTAG) ?
0.726

Likewise for ACCTCATCATGGACCGGTTTTCCCGGTAATCCGTATTTGGT (site ACCTCATCTAC) ?
0.128

Likewise for TATTTGACATGGACCGGTTTTCCCGGTAATCCGTATTTGTG (site TATTTGTCTCA) ?
0.0134

Likewise for CGTTAAGCATGGACCGGTTTTCCCGGTAATCCGTATTTGAA (site CGTTAAGCTTT) ?
2

Likewise for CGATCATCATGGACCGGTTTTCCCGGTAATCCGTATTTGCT (site GGATCATCTGG) ?
0

Likewise for GGAGTGGCATGGACCGGTTTTCCCGGTAATCCGTATTTGAT (site GGAGTGGCTAG) ?
0

Likewise for CACTCCTCATGGACCGGTTTTCCCGGTAATCCGTATTTGCG (site CACTCCTCTGG) ?
0

Likewise for AAGTCGACATGGACCGGTTTTCCCGGTAATCCGTATTTGGG (site GAGTCGACTCC) ?
0.0282

Likewise for CGGAAGACATGGACCGGTTTTCCCGGTAATCCGTATTTGCC (site AGGAAGACTTG) ?
0

Likewise for AGCCTAGCATGGACCGGTTTTCCCGGTAATCCGTATTTGTG (site AGCCTAGCTCA) ?
0.0603

Likewise for GTGGAGTCATGGACCGGTTTTCCCGGTAATCCGTATTTGTG (site GTGGAGTCTCA) ?
2.76

Likewise for TAGATGACATGGACCGGTTTTCCCGGTAATCCGTATTTGCT (site TAGATGACTAG) ?
2.49

Likewise for CGATTCCCATGGACCGGTTTTCCCGGTAATCCGTATTTGCT (site CAATTCCCTAG) ?
0.32

Likewise for TGCTTGACATGGACCGGTTTTCCCGGTAATCCGTATTTGCT (site TACTTGACTAG) ?
1.51

Likewise for TTATGAGCATGGACCGGTTTTCCCGGTAATCCGTATTTGGG (site TAATGAGCTCC) ?
0.0152

Likewise for ATTGAGACATGGACCGGTTTTCCCGGTAATCCGTATTTGGC (site ATTGAGACTGC) ?
1.83

Likewise for GTCACGACATGGACCGGTTTTCCCGGTAATCCGTATTTGGC (site GTCACGACTGC) ?
1.65

Likewise for TAGGGTGCATGGACCGGTTTTCCCGGTAATCCGTATTTGCC (site TAGGGTGCTGG) ?
2.58

Likewise for GTCGCTCCATGGACCGGTTTTCCCGGTAATCCGTATTTGGG (site GTCGCTCCTCC) ?
0.0316

Likewise for GCCACGCCATGGACCGGTTTTCCCGGTAATCCGTATTTGCA (site GCCACGCCTTA) ?
0

Likewise for GTTCCGGCATGGACCGGTTTTCCCGGTAATCCGTATTTGCC (site GTTCCGGCTGG) ?
0

Likewise for TCAGCTACATGGACCGGTTTTCCCGGTAATCCGTATTTGAG (site TCAGCTACTCT) ?
0.878

Likewise for CTATACACATGGACCGGTTTTCCCGGTAATCCGTATTTGCT (site CTGTACACTAG) ?
0.705

Likewise for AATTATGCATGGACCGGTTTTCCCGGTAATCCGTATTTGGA (site AATTATGCTCC) ?
0.0288

Likewise for GTATACACATGGACCGGTTTTCCCGGTAATCCGTATTTGTA (site GTATTCACTTA) ?
0.0042

Likewise for TGCTATACATGGACCGGTTTTCCCGGTAATCCGTATTTGAT (site TGCTATACTAT) ?
0.285

Likewise for GTGGAGTCATGGACCGGTTTTCCCGGTAATCCGTATTTGTG (site GTGGAGACTCA) ?
1.34

Likewise for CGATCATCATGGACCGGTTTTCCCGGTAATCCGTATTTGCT (site TGATAATCTAG) ?
0

Likewise for ACCTATACATGGACCGGTTTTCCCGGTAATCCGTATTTGGG (site ACCTACACTCC) ?
0.0606

Likewise for CTGGCTGCATGGACCGGTTTTCCCGGTAATCCGTATTTGGT (site CTGGCTGCTAC) ?
1.7

Likewise for ATCCTAGCATGGACCGGTTTTCCCGGTAATCCGTATTTGAG (site ATCCCAGCTCT) ?
0.0117

Likewise for CCGTTAGCATGGACCGGTTTTCCCGGTAATCCGTATTTGCG (site CCGTTAGCTCT) ?
0.0063

Likewise for ATTGAGACATGGACCGGTTTTCCCGGTAATCCGTATTTGCT (site ATTGAGACTAG) ?
2.42

Each recorded value in this set is attributed to the supplement of paper PMC11208160.
